Experiment: physchem
Details: 60 °C, aqueous buffer, thermodynamic from solid
Respond with condition met for solubility at 1 h values of 4 µg/mL and above, condition not met for values below.

Smiles String | Class
c1cc(-c2ccc(-c3ccc4ccc5cccnc5c4n3)cc2)cc(-c2ccc(-c3ccc4ccc5cccnc5c4n3)cc2)c1 | condition not met
c1cnc2c(c1)ccc1ccc(-c3cccc4c(-c5ccc6ccc7cccnc7c6n5)cccc34)nc12 | condition met
c1ccc(-c2ccc(-c3ccc4ccc5cccnc5c4n3)cc2)c(-c2ccc(-c3ccc4ccc5cccnc5c4n3)cc2)c1 | condition not met
O=S(=O)(O)c1ccc(-c2ccc3ccc4ccc(-c5cccc(-c6ccc7ccc8ccc(-c9ccc(S(=O)(=O)O)cc9)nc8c7n6)c5)nc4c3n2)cc1 | condition met
Cc1cc(C)cc(-c2ccc3ccc4ccc(-c5cccc(-c6ccc7ccc8ccc(-c9cc(C)cc(C)c9)nc8c7n6)c5)nc4c3n2)c1 | condition not met
c1cc(-c2cccc(-c3ccc4ccc5cccnc5c4n3)c2)cc(-c2ccc3ccc4cccnc4c3n2)c1 | condition met
c1ccc(-c2ccc3ccc4ccc(-c5cccc(-c6ccc7ccc8ccc(-c9ccccc9)nc8c7n6)c5)nc4c3n2)cc1 | condition not met
Cc1ccc(-c2ccc3ccc4ccc(-c5cccc(-c6ccc7ccc8ccc(-c9ccc(C)cc9)nc8c7n6)c5)nc4c3n2)cc1 | condition not met
c1cnc2c(c1)ccc1ccc(-c3ccc(-c4ccc5ccc6cccnc6c5n4)cc3)nc12 | condition met
